- assayed system: human RXFP1 (Homo sapiens, UniProt Q9HBX9)
- Sequence (Q9HBX9 1-757): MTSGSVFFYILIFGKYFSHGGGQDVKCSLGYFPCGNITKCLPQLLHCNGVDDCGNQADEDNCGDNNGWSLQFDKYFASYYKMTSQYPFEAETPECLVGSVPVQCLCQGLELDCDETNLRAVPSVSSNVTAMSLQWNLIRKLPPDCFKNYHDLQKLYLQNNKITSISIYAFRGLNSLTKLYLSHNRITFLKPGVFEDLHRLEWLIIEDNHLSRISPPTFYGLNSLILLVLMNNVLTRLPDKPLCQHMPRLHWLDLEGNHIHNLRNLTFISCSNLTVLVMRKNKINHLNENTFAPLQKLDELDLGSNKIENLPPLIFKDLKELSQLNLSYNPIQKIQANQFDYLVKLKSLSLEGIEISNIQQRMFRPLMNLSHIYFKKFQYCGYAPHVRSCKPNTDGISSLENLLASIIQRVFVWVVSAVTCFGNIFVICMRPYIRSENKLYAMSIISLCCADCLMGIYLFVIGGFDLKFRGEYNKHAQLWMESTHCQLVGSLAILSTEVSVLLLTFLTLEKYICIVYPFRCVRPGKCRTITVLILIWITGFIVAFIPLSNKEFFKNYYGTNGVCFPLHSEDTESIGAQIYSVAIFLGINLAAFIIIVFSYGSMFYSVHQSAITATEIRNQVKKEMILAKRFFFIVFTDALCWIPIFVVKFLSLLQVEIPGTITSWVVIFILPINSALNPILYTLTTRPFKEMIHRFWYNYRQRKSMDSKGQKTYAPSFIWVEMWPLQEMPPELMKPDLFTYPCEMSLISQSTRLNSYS
- procedure summary: cAMP hRXFP1 HEK293 Assay
- measurement setup: HEK293 cells stably expressing human RXFP1; 30 min at room temperature; HTRF cAMP
- Procedure: RXFP1 Cyclic Adenosine Monophosphate (cAMP) Assays. […] The level of intracellular cAMP was determined using the HTRF HiRange cAMP assay reagent kit (Cisbio) according to manufacturer's instructions. […] After a 1 h room temperature incubation, time-resolved fluorescence intensity was measured using the Envision (Perkin-Elmer) at 400 nm excitation and dual emission at 590 nm and 665 nm. […]
pEC50: −log10 of the molar value.
Please use TRUE whenever pEC50 is not below 6, and FALSE whenever it is.

O=C(N[C@H]1[C@@H](C(=O)Nc2ccc(F)c(C(F)(F)F)c2)[C@H]2CC[C@@H]1/C2=C\C(F)(F)F)C(O)c1cccc(Oc2ccccc2)c1 (some centres unmarked) [Example 7]	FALSE

For this compound, is measured pEC50 6 or higher? O=C(O)c1cccc(C2CCCC(C(=O)N[C@H]3[C@@H](C(=O)Nc4ccc(F)c(C(F)(F)F)c4)[C@H]4CC[C@@H]3/C4=C\C(F)(F)F)C2)c1 (single isomer, unassigned) [Example 3]
TRUE

For this compound, is measured pEC50 6 or higher? O=C(N[C@@H]1C2CCC(/C2=C/C2CC2)[C@@H]1C(=O)Nc1ccc(F)c(C(F)(F)F)c1)C1CCC[C@H](C2=NOC3COCC23)C1 (single isomer, unassigned) [Example 14]
FALSE

For this compound, is measured pEC50 6 or higher? O=C(O)c1cccc(C2CCC(C(=O)NC3C4CCC(C4=CC(F)(F)F)C3C(=O)Nc3ccc(F)c(C(F)(F)F)c3)C2)c1 (single isomer, unassigned) [Example 10]
FALSE

###

- assayed system: human RXFP1 (Homo sapiens, UniProt Q9HBX9)
- procedure summary: cAMP hRXFP1 HEK293 Assay
- measurement setup: HEK293 cells stably expressing human RXFP1; 30 min at room temperature; HTRF cAMP
pEC50: −log10 of the molar value.
Please use YES whenever pEC50 is not below 6, and NO whenever it is.

The following molecules have reported results that may help.
COc1ccc(Cl)cc1NC(=O)N[C@H]1[C@@H](C(=O)Nc2ccc(F)c(C(F)(F)F)c2)[C@H]2CC[C@@H]1/C2=C\C(F)(F)F	NO
CO[C@H](C(=O)N[C@H]1[C@@H](C(=O)Nc2ccc(F)c(C(F)(F)F)c2)[C@H]2CC[C@@H]1/C2=C\C(F)(F)F)c1ccccc1	NO
O=C(O)CCCCCCC(=O)N[C@H]1[C@@H](C(=O)Nc2ccc(F)c(C(F)(F)F)c2)[C@H]2CC[C@@H]1/C2=C\C1CC1	NO
O=C(O)c1cccc(C2CCCC(C(=O)N[C@H]3[C@@H](C(=O)Nc4ccc(F)c(C(F)(F)F)c4)[C@H]4CC[C@@H]3/C4=C\C(F)(F)F)C2)c1 (single isomer, unassigned) [Example 2]	YES
O=C(N[C@H]1[C@@H](C(=O)Nc2ccc(F)c(C(F)(F)F)c2)[C@H]2CC[C@@H]1/C2=C\C1CC1)C1CCC[C@@H](C2=NOC3COCC23)C1 (single isomer, unassigned) [Example 17]	NO

For this molecule, is measured pEC50 6 or higher? O=C(O)c1cccc(C2CCC(C(=O)N[C@H]3[C@@H](C(=O)Nc4ccc(F)c(C(F)(F)F)c4)[C@H]4CC[C@@H]3/C4=C\C(F)(F)F)C2)c1 (single isomer, unassigned)
YES

For this molecule, is measured pEC50 6 or higher? O=C(O)c1cccc(C2CCC(C(=O)N[C@H]3[C@@H](C(=O)Nc4ccc(F)c(C(F)(F)F)c4)[C@H]4CC[C@@H]3/C4=C\C(F)(F)F)CC2)c1 (stereo partly drawn)
NO

###

- assayed system: human RXFP1 (Homo sapiens)
- Sequence (Q9HBX9 1-757): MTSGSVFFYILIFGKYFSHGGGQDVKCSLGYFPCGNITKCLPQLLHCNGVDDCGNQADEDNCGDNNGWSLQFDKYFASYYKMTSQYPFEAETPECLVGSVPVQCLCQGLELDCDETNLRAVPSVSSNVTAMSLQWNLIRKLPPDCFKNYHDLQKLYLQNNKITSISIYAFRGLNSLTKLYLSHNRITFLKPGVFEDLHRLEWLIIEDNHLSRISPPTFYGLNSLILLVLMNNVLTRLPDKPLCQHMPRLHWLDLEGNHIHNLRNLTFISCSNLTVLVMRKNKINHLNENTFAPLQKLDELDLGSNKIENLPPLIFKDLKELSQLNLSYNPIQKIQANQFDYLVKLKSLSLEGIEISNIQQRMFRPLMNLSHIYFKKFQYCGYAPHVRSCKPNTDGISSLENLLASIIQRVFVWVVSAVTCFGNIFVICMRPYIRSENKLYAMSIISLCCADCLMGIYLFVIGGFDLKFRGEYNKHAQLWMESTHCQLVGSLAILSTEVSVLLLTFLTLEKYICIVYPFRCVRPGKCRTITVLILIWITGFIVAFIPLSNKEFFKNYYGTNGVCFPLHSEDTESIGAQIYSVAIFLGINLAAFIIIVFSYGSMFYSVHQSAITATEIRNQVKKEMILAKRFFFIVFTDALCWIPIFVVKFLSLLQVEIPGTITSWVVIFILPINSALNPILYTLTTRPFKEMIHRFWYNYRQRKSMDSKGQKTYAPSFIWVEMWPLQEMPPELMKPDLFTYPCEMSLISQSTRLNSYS
- procedure summary: cAMP hRXFP1 HEK293 Assay
- measurement setup: HEK293 cells stably expressing human RXFP1; 30 min at room temperature; HTRF cAMP
// reported pEC50 for each item listed
Give only the number. pEC50 is defined as minus log10 of concentration in molar units.

Answered cases to consult:
O=C(NC1C2CCC(/C2=C/C2CC2)[C@@H]1C(=O)Nc1ccc(F)c(C(F)(F)F)c1)C1CCC[C@H](C2=NOC3COCC23)C1 (single isomer, unassigned)	6.46
O=C(N[C@@H]1C2CCC(/C2=C/C2CC2)[C@@H]1C(=O)Nc1ccc(F)c(C(F)(F)F)c1)C1CCC[C@H](C2=NOC3COCC23)C1 (single isomer, unassigned) [Example 13]	5.54

Name the reported pEC50 value associated with the compound O=C(N[C@H]1[C@@H](C(=O)Nc2ccc(F)c(C(F)(F)F)c2)[C@H]2CC[C@@H]1/C2=C\C1CC1)C1CCC[C@@H](C2=NOC3COCC23)C1 (single isomer, unassigned) [Example 19]
5.70

Name the reported pEC50 value associated with the compound O=C(N[C@H]1[C@@H](C(=O)Nc2ccc(F)c(C(F)(F)F)c2)[C@H]2CC[C@@H]1/C2=C\C1CC1)C1CCC[C@@H](C2=NOC3COCC23)C1 (some centres unmarked) [Example 16]
6.00

Name the reported pEC50 value associated with the compound O=C(N[C@H]1[C@@H](C(=O)Nc2ccc(F)c(C(F)(F)F)c2)[C@H]2CC[C@@H]1/C2=C\C1CC1)C1CCC[C@@H](C2=NOC3COCC23)C1 (single isomer, unassigned) [Example 18]
6.00
